# System: L6
# EXPERIMENT NOTES: Cytotoxicity against rat L6 cells assessed as reduction in cell viability at 25 uM after 4 hrs by MTT assay
# Format: cell-based
# TEST CONDITIONS: l6, 4 h
MEASUREMENT LABEL: Activity

The following compounds have reported results that may help.
> print(dat)
                                smiles.repr  experimental.value
1  C=CC(C)(C)c1cc(O)c2oc3c(O)cccc3c(=O)c2c1O           Non-Toxic
2  CC(C)=CCC/C(C)=C/Cc1c(O)c(O)c2oc3cc(O)cc(O)c3c(=O)c2c1CCC(C)(C)O           Non-Toxic
3  C=CC(C)(C)c1cc(O)c(O)c2c(=O)c3cc(CC=C(C)C)c(O)c(O)c3oc12           Non-Toxic
4  CC(C)=CCc1c(O)c(O)c2oc3c(CC=C(C)C)c(O)cc(O)c3c(=O)c2c1CCC(C)(C)O           Non-Toxic
5      COc1c(O)ccc2c(=O)c3c(O)ccc(OC)c3oc12           Non-Toxic

So what does the record say about Activity for `CC(C)=CCc1c(O)cc(O)c2c(=O)c3cccc(O)c3oc12` ? Non-Toxic

So what does the record say about Activity for `COc1cc(O)c2c(=O)c3cccc(O)c3oc2c1` ? Non-Toxic

So what does the record say about Activity for `CC1(C)C=Cc2c(cc3oc4c(O)cccc4c(=O)c3c2O)O1` ? Non-Toxic

So what does the record say about Activity for `CC1(C)C=Cc2c(c(O)c3oc4c(O)ccc(O)c4c(=O)c3c2O)O1` ? Non-Toxic

So what does the record say about Activity for `CC(C)=CCC/C(C)=C/Cc1cc2c(=O)c3c(O)cc(O)cc3oc2c(O)c1O` ? Non-Toxic

Values were extracted from ChEMBL document CHEMBL4177686.
